Molecular target: T1, C-terminally FLAG-tagged human Gas6 recombinant protein (hGas6-F) (human, UniProt Q14393 31-678, gamma-carboxylated glutamic acid residues in the Gla domain (producer cells co-express rat VKOR and human GGCX); positions not given)
T1 construct: also called human Gas6-F; human Gas6 protein
T1 sequence: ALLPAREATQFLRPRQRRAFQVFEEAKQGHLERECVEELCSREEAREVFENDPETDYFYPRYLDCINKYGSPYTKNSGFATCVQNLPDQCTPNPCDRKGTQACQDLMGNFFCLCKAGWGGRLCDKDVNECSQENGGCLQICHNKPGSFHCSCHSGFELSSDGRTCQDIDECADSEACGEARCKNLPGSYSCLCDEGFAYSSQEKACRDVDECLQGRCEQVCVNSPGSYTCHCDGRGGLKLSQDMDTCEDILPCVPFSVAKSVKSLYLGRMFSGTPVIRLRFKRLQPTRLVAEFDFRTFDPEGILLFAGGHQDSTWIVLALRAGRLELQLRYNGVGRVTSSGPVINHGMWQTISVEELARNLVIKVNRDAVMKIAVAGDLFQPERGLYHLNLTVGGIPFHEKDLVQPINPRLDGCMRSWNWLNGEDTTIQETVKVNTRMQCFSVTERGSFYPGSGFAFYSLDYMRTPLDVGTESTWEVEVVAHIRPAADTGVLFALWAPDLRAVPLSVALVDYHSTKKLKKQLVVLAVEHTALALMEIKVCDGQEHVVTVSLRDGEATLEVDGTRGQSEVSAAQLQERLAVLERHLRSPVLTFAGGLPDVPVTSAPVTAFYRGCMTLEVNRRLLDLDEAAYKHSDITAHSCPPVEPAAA
Assay: SPR Biacore T100, captured antibody, Gas6 analyte, first test
RECORDED ENDPOINT: koff (s⁻¹)
Give the value in s⁻¹ but do not write s⁻¹ after it.

hzKM5321 LV6HV3a antibody (antibody, V domains shown, Humanized; variant human IgG4 constant region (EU S228P, L235E, R409K), human kappa; also called B-25; LV6HV3a) VH: QVHLVQSGPELKKPGASVKISCKASGYTFTNYGMNWVRQAPGQGLKWMGWINTNTGEPTYTEEFKGRFVFSLDTSVTTSYLQISTLKAEDTATYFCARDEGWFVYWGQGTLVTVSS VL: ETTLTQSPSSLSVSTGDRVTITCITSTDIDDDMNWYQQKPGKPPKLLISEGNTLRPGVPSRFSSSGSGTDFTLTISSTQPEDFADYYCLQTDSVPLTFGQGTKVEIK :: 0.000226
hzKM5321 LV6HV4b antibody (antibody, V domains shown, Humanized; variant human IgG4 constant region (EU S228P, L235E, R409K), human kappa; also called B-28; LV6HV4b) VH: QVHLVQSGPELKKPGASVKISCKASGYTFTNYGMNWVKQAPGQGLKWMGWINTNTGEPTYTEEFKGRFVFSLDTSVTTSYLQISTLKAEDTATYFCARDEGWFVYWGQGTLVTVSS VL: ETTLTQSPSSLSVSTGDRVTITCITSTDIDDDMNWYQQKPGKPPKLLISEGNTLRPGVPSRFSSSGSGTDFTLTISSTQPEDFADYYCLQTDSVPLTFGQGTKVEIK :: 0.000204

Now consider the entry below.
Given the entry hzKM5321 LV4HV0 antibody (antibody, V domains shown, Humanized; variant human IgG4 constant region (EU S228P, L235E, R409K), human kappa; also called B-07; LV4HV0) VH: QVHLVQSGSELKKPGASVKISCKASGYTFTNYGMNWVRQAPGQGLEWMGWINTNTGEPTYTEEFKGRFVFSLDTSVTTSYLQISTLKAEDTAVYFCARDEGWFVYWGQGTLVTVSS VL: ETTLTQSPSSLSVSTGDRVTITCITSTDIDDDMNWYQQKPGKAPKLLISEGNTLRPGVPSRFSGSGSGTDFTFTISSTQPEDFATYYCLQTDSVPLTFGQGTKVEIK , report its measured koff.
0.000551
